Could you please report measured pKd for the items listed next?
Tested System: T1, β-catenin (UniProt P35222 134-665, limits assumed, biotinylated in the SPR and plate assays)
T1 construct: also called beta catenin; biotinylated β-catenin
T1 sequence (looked up): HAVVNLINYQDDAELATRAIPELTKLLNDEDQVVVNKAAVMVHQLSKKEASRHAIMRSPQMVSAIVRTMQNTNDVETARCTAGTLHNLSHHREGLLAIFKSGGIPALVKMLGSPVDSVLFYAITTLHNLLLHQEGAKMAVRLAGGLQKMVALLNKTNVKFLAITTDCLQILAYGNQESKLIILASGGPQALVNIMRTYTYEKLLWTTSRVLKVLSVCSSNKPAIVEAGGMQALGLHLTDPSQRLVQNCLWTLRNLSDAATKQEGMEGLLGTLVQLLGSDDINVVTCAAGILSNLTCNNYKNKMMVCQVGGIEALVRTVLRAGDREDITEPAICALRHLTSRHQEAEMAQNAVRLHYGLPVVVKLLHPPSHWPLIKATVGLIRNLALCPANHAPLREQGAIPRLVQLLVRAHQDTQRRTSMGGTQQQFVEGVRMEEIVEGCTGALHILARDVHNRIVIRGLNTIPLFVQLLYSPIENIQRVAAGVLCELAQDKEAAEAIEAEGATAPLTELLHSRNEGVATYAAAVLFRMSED
Measurement Description: competitive FP
pKd: −log10 of the molar value. Bridges are numbered along the chain shown (N, C = ends). [ ]: non-standard residue; d: D form. Chg = N[C@H](C(=O)O)C1CCCCC1; NMeA = CN[C@@H](C)C(=O)O

Q. Look up and state reported pKd for Ac-W[NMeA]QSILDKH[Chg]QDVW-NH2 (lactam 8-12; not fully specified; printed as Ac-NH-W-NMeA-QSILDK*H-Chg-QD*VW-NH2) [SEQ ID NO: 460]
A. ≥ 6.40

Q. Look up and state reported pKd for WPQSILDEHGQKVW (not fully specified; Ac-NH-WPQSILDE*H-Chg-QK*VW-NH2) [SEQ ID NO: 468]
A. ≥ 6.40

Q. Look up and state reported pKd for XMWFLICAWD (HELM PEPTIDE1{[O=C(CCCCCN[*:1])[*:2]].M.W.F.L.I.C.A.W.D}$PEPTIDE1,PEPTIDE1,1:R1-10:R3$$$V2.0; SMILES CC[C@H](C)[C@@H]1NC(=O)[C@H](CC(C)C)NC(=O)[C@H](Cc2ccccc2)NC(=O)[C@H](Cc2c[nH]c3ccccc23)NC(=O)[C@H](CCSC)NC(=O)CCCCCNC(=O)C[C@@H](C(=O)O)NC(=O)[C@H](Cc2c[nH]c3ccccc23)NC(=O)[C@H](C)NC(=O)[C@H](CS)NC1=O) [SEQ ID NO: 192]
A. ≥ 6.40

Q. Look up and state reported pKd for WPQSILDKHGQDVW (not fully specified; Lauroyl-NH-WPQSILDK*H-Chg-QD*VW-NH2) [SEQ ID NO: 463]
A. ≥ 6.40
